experimental_system: GlcNAc(b1-2)[GlcNAc(b1-6)]Man(a1-6)[GlcNAc(b1-4)][GlcNAc(b1-2)Man(a1-3)]Man(b1-4)GlcNAc(b1-4)GlcNAc
protocol_text: glycan array binding signal (z-score within array); higher = stronger binding
condition: glycan notation: IUPAC condensed, linker removed
Only a selection was taken, and the strongest signals are over-represented in it overall.
Overview of reported glycan array binding signal (z-score) across a group of binders:

>>> reported_measurement("Epa2 (Candida glabrata) (protein) MGSSHHHHHHSSGLVPRGSHMASSKDPTSFPMGCSPQVLKTQPGLAVKLYSYGHPVPGCAYNTYQYPDFPRSGYKKERKLADITGVNGRIDIDLKPNDPCRVLSGNLPSNYNYQNTLTYTNFTMILYGYFQPKVTGYHTFNLEADDLLFMNLGAGNAFDCCRAESTLDNFGNYQSYSIWGTDKATADLTVFLVSGIYYPIRLFYVNRDNNAVLDFSFSTEFNKEIIHDFTSYFFSASDEEQCPGNI")
-0.884
>>> reported_measurement("HBHA-Rv (Mycobacterium tuberculosum), P0A5P6 (protein) MAENSNIDDIKAPLLAALGAADLALATVNELITNLRERAEETRTDTRSRVEESRARLTKLQEDLPEQLTELREKFTAEELRKAAEGYLEAATSRYNELVERGEAALERLRSQQSFEEVSARAEGYVDQAVELTQEALGTVASQTRAVGERAAKLVGIELPKKAAPAKKAAPAKKAAPAKKAAAKKAPAKKAAAKKVTQK")
-0.415

Tell us which glycan array binding signal (z-score) value is on record for FimD (Bordetella pertussis) (protein) MPARVISFCGAALAVWAGLAVQPAMAVDPPVDCGRALGLHFWSSASLISDQTPDGTLIGKPVVGRSLLSKSCKVPDDIKEDLSDNHDGEPVDIVLELGSNYKIRPQSYGHPGIVVDLPFGSTEETGIAIYIDFGSSPMQKVGERQWLYPQKGEVLFDVLTINGDNAEVRYQAIKVGPLKRPRKLVLSQFPNLFTYKWVFMRGTSQERVLAQGTIDTDVATSTIDLKTCRYTSQTVSLPIIQRSALTGVGTTLGMTDFQMPFWCYGWPKVSVYMSATKTQTGVDGVALPATGQAAGMASGVGVQLINGKTQQPVKLGLQGKIALPEAQQTESATFSLPMKAQYYQTSTSTSAGKLSVTYAVTLNYD -0.119

Tell us which glycan array binding signal (z-score) value is on record for Als3-2 (Candida albicans) (protein) KTITGVFNSFNSLTWSNAATYNYKGPGTPTWNAVLGWSLDGTSASPGDTFTLNMPCVFKFTTSQTSVDLTAHGVKYATCQFQAGEEFMTFSTLTCTVSNTLTPSIKALGTVTLPLAFNVGGTGSSVDLEDSKCFTAGTNTVTFNDGGKKISINVDFERSNVDPKGYLTD -0.7
